- target_entity: Cannabinoid receptor 1 (Mus musculus, UniProt P47746)
- Sequence (P47746 whole entry): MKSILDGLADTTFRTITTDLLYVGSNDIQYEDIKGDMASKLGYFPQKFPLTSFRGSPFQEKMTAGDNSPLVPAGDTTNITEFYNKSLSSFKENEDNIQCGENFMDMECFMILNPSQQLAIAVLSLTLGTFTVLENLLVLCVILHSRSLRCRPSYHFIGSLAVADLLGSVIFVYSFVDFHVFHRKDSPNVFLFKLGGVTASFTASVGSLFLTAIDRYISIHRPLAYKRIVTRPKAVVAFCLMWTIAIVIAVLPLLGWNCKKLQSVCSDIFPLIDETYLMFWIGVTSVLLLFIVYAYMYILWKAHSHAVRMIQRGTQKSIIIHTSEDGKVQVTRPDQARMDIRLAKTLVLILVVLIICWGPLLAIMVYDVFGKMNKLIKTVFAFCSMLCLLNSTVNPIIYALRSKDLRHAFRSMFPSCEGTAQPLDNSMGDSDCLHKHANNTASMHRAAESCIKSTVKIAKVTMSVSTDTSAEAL
result_type: pIC50
Scale: negative log10 of molar concentration, which is what pIC50 denotes.

query: For the compound C=C(C)[C@@H]1CCC(C)=C[C@H]1c1ccc(CCCCC)cc1O , what pIC50 is on record?
result: 7.51

----------
- target_entity: Cannabinoid receptor 1 (Rattus norvegicus)
- Sequence (P20272 whole entry): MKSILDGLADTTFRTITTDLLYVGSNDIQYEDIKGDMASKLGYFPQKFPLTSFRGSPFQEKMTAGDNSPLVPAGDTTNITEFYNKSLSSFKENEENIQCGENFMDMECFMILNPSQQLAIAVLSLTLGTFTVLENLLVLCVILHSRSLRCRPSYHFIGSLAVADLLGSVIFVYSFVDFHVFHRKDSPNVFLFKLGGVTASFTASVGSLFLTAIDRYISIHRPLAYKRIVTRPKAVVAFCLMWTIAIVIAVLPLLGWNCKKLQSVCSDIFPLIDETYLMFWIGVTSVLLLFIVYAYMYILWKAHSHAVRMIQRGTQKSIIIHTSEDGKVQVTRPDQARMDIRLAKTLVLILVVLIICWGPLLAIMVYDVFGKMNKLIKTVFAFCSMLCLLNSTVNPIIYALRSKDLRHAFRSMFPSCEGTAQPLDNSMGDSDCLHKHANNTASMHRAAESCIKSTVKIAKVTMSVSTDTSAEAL
- test_method_notes: Binding affinity to rat CB1 receptor
result_type: Ki

query: For the compound CCCCCCC(C)(C)c1cc(OC)c([C@H]2C=C(CO)[C@H]3C[C@@H]2C3(C)C)c(OC)c1 , what Ki is on record?
result: > 10 µM
